Cited source for all entries: the supplement of paper PMC10567573

B1: HESX1 (parent)
chain: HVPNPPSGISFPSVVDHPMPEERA

# Variants of: B1
# assay.comment: protein stability index of a GFP-peptide fusion (GPS, HEK-293T) (PSI 1-6); higher = more stable;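 note: lentivirally expressed fusions sorted by FACS into six bins by GFP to DsRed ratio, PSI derived from sequencing read proportions per bin multiplied by bin number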
# test.parameters: c terminus: a fixed tail appended
assay.readout: protein stability index
Answers are plain numbers.

# sequence.input, protein stability index
rows = [
    ("HVPNPPSGISFPSVVDHPMEEERA [P20E]", 2.48),
    ("HVPIPPSGISFPSVVDHPMPEERA [N4I]", 3.54),
    ("HVPNPPSIISFPSVVDHPMPEERA [G8I]", 2.83),
]

Please go through the list and note protein stability index for each variant.
1. HVPNPPSGISFPSVVDHPMPEERH [A24H]
2. HVPGPPSGISFPSVVDHPMPEERA [N4G]
3. HVPNPPSTISFPSVVDHPMPEERA [G8T]
4. HVPNPPSGISFPSVVDHPMPVERA [E21V]

*A*
2.65
1.66
2.91
2.48

Please look at the items below and tell me protein stability index for each one, in order.
1. HVPNPPSGISWPSVVDHPMPEERA [F11W]
2. HVPNPPSGISFPSRVDHPMPEERA [V14R]
3. HVPNLPSGISFPSVVDHPMPEERA [P5L]
4. HVPNPPSGWSFPSVVDHPMPEERA [I9W]
5. HVQNPPSGISFPSVVDHPMPEERA [P3Q]
6. HVPNPPSGISFPSVVDHPMKEERA [P20K]

*A*
[2.54, 3.75, 2.53, 2.37, 4.09, 2.54]

# batch: return protein stability index for each of the 4 variants below
1. HVPNPPSGIIFPSVVDHPMPEERA [S10I]
2. HVPNPPSGISFPSVVDHPMPEESA [R23S]
3. HVPNPPSGISFPSVVDHPMPYERA [E21Y]
4. HVPNPPSGIPFPSVVDHPMPEERA [S10P]

*A*
[2.59, 2.36, 2.43, 2.29]
